- methodSummary: soluble fraction after stress (log2 fold change); higher = more stays soluble; pooled small domains, quantitative proteomics
- conditionsUsed: stress: pH 4
Tick True if soluble fraction (log2) is -0.2 or greater. Tick False if soluble fraction (log2) is less than -0.2.

Threshold query (soluble fraction (log2) >= -0.2) on HMGGQFVKVEVIAQIFGVTVRRVQQLTQEGVVKTTEIPGEGRRYELVPTIKTYIQYLSDKAY
True

Threshold query (soluble fraction (log2) >= -0.2) on HMSLMLYVEDVDTAFKKAIELGATEIRPVHDQFYGDRAGTLQDPFGHIWIIGTHKEDVSDEELNNRIGNI
False

Threshold query (soluble fraction (log2) >= -0.2) on HMSKHATLLEALAELTVKLKPHTQLPSERQLSEDFGVSRMTLRRAIDVMQSRGYIYTVPSKGLYVSEP
True

Threshold query (soluble fraction (log2) >= -0.2) on HMSMFAQQLKDLRKKIPGLTQTDMAKKLGIAKTTYASYEQGKRTPDIETQNKIADFFNVSLDYLHG
True

Threshold query (soluble fraction (log2) >= -0.2) on HMFIPMTDAQRHLFANKLAKLPELSEYSRGTESYEDFAIRIADMLLEPPKFRMFYPLLEQLGF
False

Threshold query (soluble fraction (log2) >= -0.2) on HMGLNPSILVKLGNANIKTIDNLADLASDELKEILEDISITSKEADEIIMRARSSWFEEDDKKEDNI
True

Threshold query (soluble fraction (log2) >= -0.2) on HMAITVPEGATLSDAAVLLKQAGAVRSADAFLTRAKVFGGSTPIKAGEFVIPVQASNKDILAILQGGK
True

Threshold query (soluble fraction (log2) >= -0.2) on HMQSVSANSVQKQLADIIDGEDKTHPLSDRELTEKLVAQGVQISRRTVAKYREAMGIPGASGRKQ
True

Threshold query (soluble fraction (log2) >= -0.2) on HMLRDTTLLHIDSIVRDGSTAMANITVRDEGTDLEFPLQLRMERGDMGWQVVRIVNYRAYLEAVQKA
False

Threshold query (soluble fraction (log2) >= -0.2) on HMEYTTEELDSLLKLYFQTHESINRNEFEQLTSYTRTTASRRLKTLVQAGKLQNIGLYRFPVYKPTEGNF
True

Threshold query (soluble fraction (log2) >= -0.2) on HMTKPTLMEVEIKGAIQNPGVYTLKRNSSISKLIKMSGPLLENADTSSISFTHILQDKDVVVIPEIK
True

Threshold query (soluble fraction (log2) >= -0.2) on HMEGVNLTVQEAKQMAAIIAPLLKQGQSPYQIVTNHPELGISEKTLYNYIENDVFHEIAGITVMDL
False

Threshold query (soluble fraction (log2) >= -0.2) on HMKKNTEALDYYKKAGANFPEDEVISSEYLFRAAQLQEVLGKTDEAVAIYKDIKAKYPTTEIGLNVDKFIL
True

Threshold query (soluble fraction (log2) >= -0.2) on HMGDVPESLVEKAGHSINAKIISAWGMTETGASTMTRPQDDPERAIYSDGVVLPLMDVRVVNDAGLA
False

Threshold query (soluble fraction (log2) >= -0.2) on HMKKTVTDSVELLTFLKDIFTNTSTNKLRKMLTTGRVTVNNIVIHKAKHILVQNDVVEIGDK
True

Threshold query (soluble fraction (log2) >= -0.2) on HMTEIILTARSGRHAVRHRLEGLGYTLTPEELERVHQRFLAVADAKKEVFDEDLHALMADERGT
False

Threshold query (soluble fraction (log2) >= -0.2) on HMGDPSSERNIQKSIFILIGEKALSVQDISRSLGMPNDIIDKALISGVERNLWLSSDKGEYYL
False
